These entries and their values trace back to patent US6355799B1.

test system: green foxtail (Setaria viridis, SETVI); test: Post-emerge test, greenhouse herbicide activity screening; format: in vivo; settings: post-emerge, 250 g ai/ha, 14 days after application, rating scale 0-100
Readout Kind: phytotoxicity rating SETVI
Numbers only.

Previously resolved entries follow.
- Molecular String: "Cn1c(C(F)(F)F)cc(=O)n(-c2ccc(C(N)=S)cc2NC(=O)c2ccc3ccccc3c2)c1=O"
  phytotoxicity rating SETVI: 10
- Molecular String: "COc1c(Cl)cc(F)c(-n2c(=O)cc(C(F)(F)F)n(C)c2=O)c1NC(=O)OCc1ccc2ccccc2c1"
  phytotoxicity rating SETVI: 30
- Molecular String: "COc1c(Cl)cc(F)c(-n2c(=O)cc(C(F)(F)F)n(C)c2=O)c1NC(=O)COCc1ccccc1"
  phytotoxicity rating SETVI: 20
- Molecular String: "COc1c(Cl)cc(F)c(-n2c(=O)cc(C(F)(F)F)n(C)c2=O)c1NC(=O)c1ccc(Br)cc1"
  phytotoxicity rating SETVI: 90
- Molecular String: "COc1c(Cl)cc(F)c(-n2c(=O)cc(C(F)(F)F)n(C)c2=O)c1NC(=O)OCc1c(Cl)cccc1Cl"
  phytotoxicity rating SETVI: 80
- Molecular String: "COc1ccc(COC(=O)Nc2c(OC)c(Cl)cc(F)c2-n2c(=O)cc(C(F)(F)F)n(C)c2=O)cc1"
  phytotoxicity rating SETVI: 90
- Molecular String: "Cn1c(C(F)(F)F)cc(=O)n(-c2ccc(Cl)cc2NC(=O)Oc2ccccc2)c1=O"
  phytotoxicity rating SETVI: 0
- Molecular String: "COc1c(Cl)cc(F)c(-n2c(=O)cc(C(F)(F)F)n(C)c2=O)c1NC(=O)c1ccc(F)cc1F"
  phytotoxicity rating SETVI: 80

# batch size: 2; output phytotoxicity rating SETVI per entry
1. CNC(=O)N(C(=O)NC)c1c(OC)c(Cl)cc(F)c1-n1c(=O)cc(C(F)(F)F)n(C)c1=O
2. COc1ccc(C(=O)Nc2c(OC)c(Cl)cc(F)c2-n2c(=O)cc(C(F)(F)F)n(C)c2=O)cc1

1: 0; 2: 95

For each entry beneath this line, provide reported phytotoxicity rating SETVI.
1. COc1c(Cl)cc(F)c(-n2c(=O)cc(C(F)(F)F)n(C)c2=O)c1NC(=O)C=Cc1ccco1
2. COc1c(Cl)cc(F)c(-n2c(=O)cc(C(F)(F)F)n(C)c2=O)c1NC(=O)OCc1ccc(Cl)c(Cl)c1
3. COc1c(Cl)cc(F)c(-n2c(=O)cc(C(F)(F)F)n(C)c2=O)c1NC(=O)OCc1ccc(OC(F)(F)F)cc1
4. Cc1ccc(OC(=O)Nc2c(C)c(Cl)cc(F)c2-n2c(=O)cc(C(F)(F)F)n(C)c2=O)cc1C

1: 0; 2: 50; 3: 60; 4: 70

Please supply phytotoxicity rating SETVI for each of the following items, keeping them in order.
1. Cn1c(C(F)(F)F)cc(=O)n(-c2c(F)cc(Cl)c(Oc3ncccc3[N+](=O)[O-])c2NC(=O)c2ccc3ccccc3c2)c1=O
2. COc1c(Cl)cc(F)c(-n2c(=O)cc(C(F)(F)F)n(C)c2=O)c1NC(=O)NCc1ccccc1
3. Cn1c(C(F)(F)F)cc(=O)n(-c2c(F)cc(Cl)c(O)c2NC(=O)c2ccc3ccccc3c2)c1=O
4. COc1c(Cl)cc(F)c(-n2c(=O)cc(C(F)(F)F)n(C)c2=O)c1N(C(=O)c1ccc(Cl)nc1)C(=O)c1ccc(Cl)nc1
5. Cc1cccc(C)c1OC(=O)Nc1c(C)c(Cl)cc(F)c1-n1c(=O)cc(C(F)(F)F)n(C)c1=O
6. COc1c(Cl)cc(F)c(-n2c(=S)cc(C(F)(F)F)n(C)c2=O)c1NC(=S)c1ccc(F)cc1F
7. Cc1ccccc1COC(=O)Nc1c(C)c(Cl)cc(F)c1-n1c(=O)cc(C(F)(F)F)n(C)c1=O

[90, 40, 20, 70, 40, 30, 100]

Provide reported phytotoxicity rating SETVI for each item, in the same order as listed.
1. COc1c(Cl)cc(F)c(-n2c(=O)cc(C(F)(F)F)n(C)c2=O)c1NC(N)=O
2. COc1c(Cl)cc(F)c(-n2c(=O)cc(C(F)(F)F)n(C)c2=O)c1NC(=O)OCc1cc(F)ccc1F
3. COc1c(Cl)cc(F)c(-n2c(=O)cc(C(F)(F)F)n(C)c2=O)c1NC(=O)c1ccc(C#N)cc1
4. COc1c(Cl)cc(F)c(-n2c(=O)cc(C(F)(F)F)n(C)c2=O)c1NC(=O)OCc1ccccn1
5. COc1c(Cl)cc(F)c(-n2c(=O)cc(C(F)(F)F)n(C)c2=O)c1N(C(=O)c1ccc([N+](=O)[O-])cc1)C(=O)c1ccc([N+](=O)[O-])cc1
6. CCOC(=O)COc1c(Cl)cc(F)c(-n2c(=O)cc(C(F)(F)F)n(C)c2=O)c1NC(=O)C=Cc1ccccc1
7. COc1c(Cl)cc(F)c(-n2c(=O)cc(C(F)(F)F)n(C)c2=O)c1NC(=O)C=Cc1ccccc1
8. COc1c(Cl)cc(F)c(-n2c(=O)cc(C(F)(F)F)n(C)c2=O)c1NC(=O)c1ccc2c(c1)OCO2

0
90
30
90
0
0
30
90
